# TARGET UNDER TEST: human GPR40 (Homo sapiens, UniProt O14842)
# Construct: expressed in transfected cells; host or cells: HEK cells stably expressing the aequorin reporter
# Sequence (O14842 whole entry): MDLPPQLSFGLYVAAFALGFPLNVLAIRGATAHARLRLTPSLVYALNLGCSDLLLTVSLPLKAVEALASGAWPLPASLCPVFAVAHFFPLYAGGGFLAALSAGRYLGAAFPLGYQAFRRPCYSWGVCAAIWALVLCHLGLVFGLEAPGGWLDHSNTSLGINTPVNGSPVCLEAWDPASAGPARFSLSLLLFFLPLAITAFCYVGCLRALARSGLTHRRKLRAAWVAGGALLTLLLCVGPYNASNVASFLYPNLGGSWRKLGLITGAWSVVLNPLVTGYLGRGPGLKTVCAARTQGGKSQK
# TEST PROTOCOL: Inositol Phosphate Turnover (IP1) Assay 2
# Assay type: cell-based
# CONDITION CONTEXT: HEK cells stably expressing human GPR40; 15,000 cells per well; compound acoustically transferred; CisBio IP-One kit
READOUT KIND: pEC50
Notebook: values listed as pEC50 are -log10 of the concentration (mol/L).

-- ask // lookup pEC50 for COc1cc(-c2ccc(C3CCc4ccc([C@H](C5CC5)[C@H](C)C(=O)O)cc4O3)cc2CN2[C@H](C)CC[C@H]2C)c(F)cn1 (some centres unmarked)
-- reply 9.30

-- ask // lookup pEC50 for COc1cc(-c2ccc(C3CCc4ccc([C@H](C5CC5)[C@H](C)C(=O)O)cc4O3)cc2CN2CCC(F)(F)CC2)c(F)cn1 (mixture of isomers)
-- reply 9.00

-- ask // lookup pEC50 for COc1cc(-c2ccc([C@H]3CCc4ccc([C@H](C5CC5)[C@H](C)C(=O)O)cc4O3)cc2CN2CCC(C)(C)CC2)c(F)cn1
-- reply 8.77

-- ask // lookup pEC50 for COc1cc(-c2ccc(C3CCc4ccc([C@H](C5CC5)[C@H](C)C(=O)O)cc4O3)cc2CN(C)CC(F)(F)F)c(F)cn1 (single isomer, unassigned) [Example 21]
-- reply 9.12

-- ask // lookup pEC50 for COc1cc(-c2ccc(C3CCc4ccc([C@H](C5CC5)[C@H](C)C(=O)O)cc4O3)cc2CN2CCC2C(F)(F)F)c(F)cn1 (some centres unmarked)
-- reply 8.92

-- ask // lookup pEC50 for COC[C@H]1CC[C@H](COC)N1Cc1cc(C2CCc3ccc([C@H](C4CC4)[C@H](C)C(=O)O)cc3O2)ccc1-c1cc(OC)ncc1F (some centres unmarked)
-- reply 8.70

-- ask // lookup pEC50 for COc1cc(-c2ccc(C3CCc4ccc([C@H](C5CC5)[C@H](C)C(=O)O)cc4O3)cc2[C@@H](C)N(C)C)c(F)cn1 (some centres unmarked)
-- reply 8.52

-- ask // lookup pEC50 for CCN(CC)Cc1cc([C@H]2CCc3ccc([C@H](C4CC4)[C@H](C)C(=O)O)cc3O2)ccc1-c1cc(OC)ncc1F
-- reply 8.57

-- ask // lookup pEC50 for COc1cc(-c2ccc(C3CCc4ccc([C@H](C5CC5)[C@H](C)C(=O)O)cc4O3)cc2CN2CC[C@@H](F)C2)c(F)cn1 (single isomer, unassigned) [Example 24]
-- reply 8.66

-- ask // lookup pEC50 for COc1cc(-c2ccc(C3CCc4ccc([C@H](C5CC5)[C@H](C)C(=O)O)cc4O3)cc2CN2CCC2(C)C)c(F)cn1 (mixture of isomers)
-- reply 8.40

-- ask // lookup pEC50 for COc1cc(-c2ccc(C3CCc4ccc([C@H](C5CC5)[C@H](C)C(=O)O)cc4O3)cc2CN2CC[C@H](F)C2)c(F)cn1 (single isomer, unassigned) [Example 25]
-- reply 8.64

-- ask // lookup pEC50 for COc1cc(-c2ccc(C3CCc4ccc([C@H](C5CC5)[C@H](C)C(=O)O)cc4O3)cc2CN2CCOC3(CC3)C2)c(F)cn1 (mixture of isomers)
-- reply 8.51

-- ask // lookup pEC50 for COc1cc(-c2ccc(C3CCc4ccc([C@H](C5CC5)[C@H](C)C(=O)O)cc4O3)cc2CN2CC[C@@H](C(F)(F)F)C2)c(F)cn1 (single isomer, unassigned) [Example 28]
-- reply 8.85

-- ask // lookup pEC50 for COc1cc(-c2ccc([C@H]3CCc4ccc([C@H](C5CC5)[C@H](C)C(=O)O)cc4O3)cc2CN2[C@H](C)CC[C@H]2C)c(F)cn1
-- reply 9.15

-- ask // lookup pEC50 for COc1cc(-c2ccc(C3CCc4ccc([C@H](C5CC5)[C@H](C)C(=O)O)cc4O3)cc2CN2CCC3(CCCO3)C2)c(F)cn1 (some centres unmarked)
-- reply 7.89

-- ask // lookup pEC50 for COc1cc(-c2ccc(C3CCc4ccc([C@H](C5CC5)[C@H](C)C(=O)O)cc4O3)cc2CN2CCCC2)c(F)cn1 (single isomer, unassigned) [Example 9a]
-- reply 8.41

-- ask // lookup pEC50 for COc1cc(-c2ccc(C3CCc4ccc([C@H](C5CC5)[C@H](C)C(=O)O)cc4O3)cc2CN2CC[C@H](F)C2)c(F)cn1 (single isomer, unassigned) [Example 26]
-- reply 8.60

-- ask // lookup pEC50 for COc1cc(-c2ccc(C3CCc4ccc([C@H](C5CC5)[C@H](C)C(=O)O)cc4O3)cc2CN2CCC(F)(F)C2)c(F)cn1 (mixture of isomers) [Example 17]
-- reply 9.15

-- ask // lookup pEC50 for COc1cc(-c2ccc([C@@H]3CCc4ccc([C@H](C5CC5)[C@H](C)C(=O)O)cc4O3)cc2CN2CCC[C@@H]2C)c(F)cn1
-- reply 8.74

-- ask // lookup pEC50 for COc1cc(-c2ccc(C3CCc4ccc([C@H](C5CC5)[C@H](C)C(=O)O)cc4O3)cc2CN2CCCC(OC)C2)c(F)cn1 (some centres unmarked)
-- reply 8.44

-- ask // lookup pEC50 for COc1cc(-c2ccc([C@H]3CCc4ccc([C@H](C5CC5)[C@H](C)C(=O)O)cc4O3)cc2CN2CCC2(C)C)c(F)cn1
-- reply 8.08

-- ask // lookup pEC50 for CNCc1cc(C2CCc3ccc([C@H](C4CC4)[C@H](C)C(=O)O)cc3O2)ccc1-c1cc(OC)ncc1F (mixture of isomers)
-- reply 6.51

-- ask // lookup pEC50 for COc1cc(-c2ccc([C@@H]3CCc4ccc([C@H](C5CC5)[C@H](C)C(=O)O)cc4O3)cc2CNCC(F)(F)F)c(F)cn1
-- reply 9.00

Where do these numbers come from? They come from patent US10968193B2.
